tested on: OVCAR-4 ovarian; test: NCI tumour cell line growth inhibition, 48 h
Entries and their TGI values follow.
VALUE_KIND: TGI

[[record]]
smiles_code = "CC1=NN(C(=O)c2nn(-c3ccc(Cl)cc3)cc2O)C(=O)C1"
reported_measurement = "> 100 µM"

[[record]]
smiles_code = "C=C1C(=O)O[C@H]2[C@H]1CC/C(CNC(=O)/C=C/c1ccc(Cl)cc1Cl)=C\\CC[C@@]1(C)O[C@@H]21"
reported_measurement = "3.01 µM"

[[record]]
smiles_code = "O=c1[nH]c2c(c3ccccc13)CCc1ccccc1-2"
reported_measurement = "> 100 µM"

[[record]]
smiles_code = "c1cc(C[S+]2CCCC2)oc1C[S+]1CCCC1"
reported_measurement = "> 100 µM"


###

Overview of reported TGI across a group of molecules:
tested on: SNB-19 CNS; experiment: NCI tumour cell line growth inhibition, 48 h
VALUE_KIND: TGI

[[record]]
molecule = "COC1(Cc2ccccc2)C(=O)c2ccccc2N1C(C)=O (stereo not drawn)"
value_kind = "TGI"
reported_measurement = "> 100 µM"

[[record]]
molecule = "O=C1Nc2ccc(Br)cc2/C1=C/C(=O)c1ccccc1"
value_kind = "TGI"
reported_measurement = "37.7 µM"

[[record]]
molecule = "CNc1ncc2cc(Oc3ccc(F)cc3F)c(=O)n(C)c2n1"
value_kind = "TGI"
reported_measurement = "> 25 µM"


###

system: CCRF-CEM leukemia; experiment: NCI tumour cell line growth inhibition, 48 h
VALUE_KIND: TGI

[[record]]
compound = "CC(C)(C)N=c1n(C(C)(C)C)oc(=O)n1-c1ccccc1"
reported_measurement = "> 50 µM"

[[record]]
compound = "COC1C(OC(N)=O)C(O)C(Oc2ccc3c(O)c(NC(=O)c4ccc(O)c(CC=C(C)C)c4)c(=O)oc3c2C)OC1(C)C (stereo unspecified)"
reported_measurement = "> 100 µM"

[[record]]
compound = "CC(=O)Oc1cc(S(=O)(=O)Nc2n[nH]c(N)n2)c(S)cc1Cl"
reported_measurement = "> 100 µM"

[[record]]
compound = "COc1cc2c(Cc3cc(OCc4ccccc4)ccc3N)nccc2c(OC)c1OC"
reported_measurement = "> 10 µM"

[[record]]
compound = "CCOC(=O)NC(=S)NC(C)c1ccccc1 (stereo unspecified)"
reported_measurement = "> 100 µM"

[[record]]
compound = "CCSC(=O)C1(C)OC2CCCCC2C1=O (stereo unspecified)"
reported_measurement = "> 100 µM"


###

tested on: NCI-H23 lung; test: NCI tumour cell line growth inhibition, 48 h
Below, each of the compounds is paired with its reported TGI value.
VALUE_KIND: TGI

[[record]]
compound = "O=C1c2ccn(CCCCN(CCO)CCO)c2C(=O)c2c1c(O)c1ccccc1c2O"
reported_measurement = "3.02 µM"

[[record]]
compound = "Cc1cc(Cl)ccc1NC(=O)C(=O)Cc1occc(=O)c1O"
reported_measurement = "> 100 µM"

[[record]]
compound = "COc1nc(OC)nc(Sc2ccc(Sc3ccc(Sc4nc(OC)nc(OC)n4)cc3)cc2)n1"
reported_measurement = "> 100 µM"

[[record]]
compound = "COC(=O)CCC1(O)C=CC(=O)C=C1"
reported_measurement = "97.4 µM"

[[record]]
compound = "Cn1c(=O)sc2cc(C(=S)N3CCN(c4ccccc4)CC3)ccc21"
reported_measurement = "> 100 µM"

[[record]]
compound = "O=c1[nH]c2c(c3ccccc13)CCc1ccccc1-2"
reported_measurement = "> 100 µM"

[[record]]
compound = "CC(C)c1cccc(C(C)C)c1NC(=O)C(=O)C1SC(=S)NC1=O (stereo not drawn)"
reported_measurement = "> 100 µM"

[[record]]
compound = "COc1cc(Cc2ccc3c(c2C#N)N(C)c2ccccc2S3)cc(OC)c1OC"
reported_measurement = "> 100 µM"

